Field: pIC50. Provide a value for each of the compounds that follow.
Molecular target: thromboxane synthetase (Rattus norvegicus)
Construct: Whole blood was collected from the heart of male SD rat after isoflurane anesthesia; from tissue; host or cells: whole blood of male Sprague-Dawley rats
Experiment: Release of TXB2 in the in-vitro coagulation process of rats' whole blood
Assay type: cell-based
Details: male SD rat whole blood, 37° C. 30 mins, TXB2 by LC-MS/MS; class symbols; read-out: IC50 for the release level of TXB2 in the in-vitro coagulation of rats' whole blood (thromboxane synthetase)
pIC50: −log10 of the molar value.

Worked examples follow.
COMPOUND | MEASUREMENT_TARGET | pIC50
Oc1cc(CCCCCn2ccnc2)on1 [Compound 33] | thromboxane synthetase (Rattus norvegicus) | < 6.60
Oc1c(F)ccc(-c2ccc(Cn3ccnc3)cc2)c1F [Compound 28] | thromboxane synthetase (Rattus norvegicus) | 6.60 to 7.00
Oc1cc(-c2ccc(Cn3ccnc3)cc2)sn1 [Compound 29] | thromboxane synthetase (Rattus norvegicus) | < 6.60

Required: pIC50, one value per compound below.
1. CC(c1ccc(-c2cc(O)no2)cc1)n1ccnc1 (stereo not shown) [Compound 20]
2. Cc1c(O)noc1-c1ccc(Cn2ccnc2)cc1 [Compound 30]
3. Oc1cc(-c2ccc(Cn3ccnc3)cc2)on1 [Compound 1]
4. Oc1cc(Cc2cccc(Cn3ccnc3)c2)on1 [Compound 26]
5. Oc1cc(-c2c(F)cc(Cn3ccnc3)cc2F)on1 [Compound 5]

Reply:
1: ≥ 7.60; 2: < 6.60; 3: ≥ 7.60; 4: < 6.60; 5: 7.00 to 7.30

Required: pIC50, one value per compound below.
1. C[C@H](c1ccc(-c2cc(O)no2)cc1)n1ccnc1 [Compound 21]
2. Oc1cc(-c2ccc(Cn3ccnc3)c(Br)c2)on1 [Compound 13]

Reply:
1. ≥ 7.60
2. 7.30 to 7.60

* * *

Molecular target: thromboxane synthetase (Rattus norvegicus, UniProt P49430)
Construct: Whole blood was collected from the heart of male SD rat after isoflurane anesthesia; from tissue; host or cells: whole blood of male Sprague-Dawley rats
Sequence (P49430 whole entry): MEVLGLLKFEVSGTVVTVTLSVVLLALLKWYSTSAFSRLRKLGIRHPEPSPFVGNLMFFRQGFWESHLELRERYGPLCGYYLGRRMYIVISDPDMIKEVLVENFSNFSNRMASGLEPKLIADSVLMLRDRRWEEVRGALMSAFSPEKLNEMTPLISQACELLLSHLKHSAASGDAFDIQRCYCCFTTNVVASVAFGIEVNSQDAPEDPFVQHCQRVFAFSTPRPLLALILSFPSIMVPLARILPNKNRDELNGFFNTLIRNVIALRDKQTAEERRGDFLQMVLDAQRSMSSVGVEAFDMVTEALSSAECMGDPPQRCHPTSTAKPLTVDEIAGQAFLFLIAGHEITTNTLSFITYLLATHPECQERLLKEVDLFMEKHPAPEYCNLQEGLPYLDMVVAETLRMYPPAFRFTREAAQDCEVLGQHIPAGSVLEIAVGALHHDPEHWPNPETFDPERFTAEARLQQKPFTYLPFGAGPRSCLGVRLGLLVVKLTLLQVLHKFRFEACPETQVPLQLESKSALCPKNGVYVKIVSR
Experiment: Release of TXB2 in the in-vitro coagulation process of rats' whole blood
Format: cell-based
Details: male SD rat whole blood, 37° C. 30 mins, TXB2 by LC-MS/MS; class symbols; read-out: IC50 for the release level of TXB2 in the in-vitro coagulation of rats' whole blood (thromboxane synthetase)
pIC50: −log10 of the molar value.
Field: pIC50. Provide a value for each of the molecules that follow.

Worked examples follow.
MOLECULE | MEASUREMENT_TARGET | pIC50
CCc1cc(-c2cc(O)no2)ccc1Cn1ccnc1 [Compound 16] | thromboxane synthetase (Rattus norvegicus, UniProt P49430) | ≥ 7.60
Cc1cc(-c2cc(O)no2)cc(C)c1Cn1ccnc1 [Compound 18] | thromboxane synthetase (Rattus norvegicus, UniProt P49430) | < 6.60
Oc1cc(Cc2ccc(Cn3ccnc3)cc2)on1 [Compound 25] | thromboxane synthetase (Rattus norvegicus, UniProt P49430) | < 6.60
Oc1cc(-c2ccc(Cn3ccnc3)c(C3CC3)c2)on1 [Compound 15] | thromboxane synthetase (Rattus norvegicus, UniProt P49430) | 7.00 to 7.30
Cc1cc(Cn2ccnc2)ccc1-c1cc(O)no1 [Compound 8] | thromboxane synthetase (Rattus norvegicus, UniProt P49430) | 7.00 to 7.30
Oc1cc(-c2ccc(Cn3ccnc3)cc2Cl)on1 [Compound 7] | thromboxane synthetase (Rattus norvegicus, UniProt P49430) | 7.00 to 7.30
Oc1cc(-c2ccc(Cn3ccnc3)c(Cl)c2)on1 [Compound 11] | thromboxane synthetase (Rattus norvegicus, UniProt P49430) | 7.30 to 7.60
Oc1nccc(-c2ccc(Cn3ccnc3)cc2)c1F [Compound 27] | thromboxane synthetase (Rattus norvegicus, UniProt P49430) | < 6.60

Required: pIC50, one value per molecule below.
1. COc1cc(Cn2ccnc2)ccc1-c1cc(O)no1 [Compound 9]
2. Oc1cc([C@H]2CC[C@@H](Cn3ccnc3)CC2)on1 [Compound 35]
3. Cc1cc(-c2cc(O)no2)ccc1Cn1ccnc1 [Compound 12]
4. Oc1cc(CCCCn2ccnc2)on1 [Compound 32]
5. Oc1cc(-c2ccc(Cn3ccnc3)cc2)[nH]n1 [Compound 31]

Reply:
1. ≥ 7.60
2. 7.00 to 7.30
3. 7.30 to 7.60
4. < 6.60
5. < 6.60

Required: pIC50, one value per molecule below.
1. Oc1cc(-c2ccc(Cn3ccnc3)c(F)c2)on1 [Compound 2]
2. Oc1cc(-c2cc(F)c(Cn3ccnc3)c(F)c2)on1 [Compound 17]

Reply:
1: 6.60 to 7.00; 2: ≥ 7.60
